Cited source for all entries: the supplement of paper PMC11368000

- Test system: 11235 (donor line of iPSC-derived cardiomyocytes)
- Method Notes: POD (EC95) for loss of peak frequency (asystole) vs vehicle; higher = less potent (higher point of departure)
- Assay Conditions: exposure time: 90 min
Observed Property: POD vs vehicle

Q: Fill in: POD vs vehicle of NC(=O)C(F)(F)C(F)(F)C(F)(F)F [Heptafluorobutyramide] is ___
A: > 100 µM

Q: Fill in: POD vs vehicle of O=S(=O)(O)CCC(F)(F)C(F)(F)C(F)(F)C(F)(F)C(F)(F)C(F)(F)F is ___
A: > 100 µM

Q: Fill in: POD vs vehicle of O=C(CC(=O)C(F)(F)C(F)(F)F)C(F)(F)F is ___
A: 87.4 µM

Q: Fill in: POD vs vehicle of O=C(O)C(F)(F)C(F)(F)F is ___
A: > 100 µM

Q: Fill in: POD vs vehicle of NS(=O)(=O)C(F)(F)C(F)(F)C(F)(F)C(F)(F)C(F)(F)C(F)(F)F [Perfluorohexanesulfonamide] is ___
A: 6.45 µM

Q: Fill in: POD vs vehicle of O=C(O)C(F)(F)C(F)(F)C(F)(F)C(F)(F)C(F)(F)C(F)(F)F is ___
A: > 100 µM

Q: Fill in: POD vs vehicle of CN(CCO)S(=O)(=O)C(F)(F)C(F)(F)C(F)(F)C(F)(F)C(F)(F)C(F)(F)C(F)(F)C(F)(F)F [N-Methyl-N-(2-hydroxyethyl)perfluorooctanesulfonamide] is ___
A: > 100 µM
